The origin of these recorded values is BindingDB's records for doi:10.1016/j.bioorg.2016.08.009.

# tgt: Bromodomain-containing protein 4 [44-168] (Human)
# Construct: 44-168
# procedure_summary: BRD4-BD1 Binding Assay
# assay_conditions: 25 °C
reported_metric: IC50 (nM)
Numeric answer only, unit nM assumed.

### Prompt Report IC50 for Cc1noc(C)c1-c1ccc2c(c1)N(Cc1ccccc1)[C@H](Cc1ccccc1)C(=O)N2 please.
### Response 151

### Prompt Report IC50 for Cc1noc(C)c1-c1ccc2c(c1)N(Cc1ccccc1)C(CO)C(=O)N2 (configuration not stated) please.
### Response 650

### Prompt Report IC50 for COc1ccc(CN2c3cc(-c4c(C)noc4C)ccc3N(C)C(=O)[C@H]2C)cc1 please.
### Response 220

### Prompt Report IC50 for CC[C@@H]1C(=O)Nc2ccc(-c3c(C)noc3C)cc2N1Cc1ccccc1 please.
### Response 73

### Prompt Report IC50 for Cc1noc(C)c1-c1ccc2c(c1)N(Cc1ccc(Cl)cc1)CC(=O)N2 please.
### Response 500

### Prompt Report IC50 for COc1ccc(CN2c3cc(-c4c(C)noc4C)ccc3NC(=O)C2C)cc1 (configuration not stated) please.
### Response 160

### Prompt Report IC50 for Cc1noc(C)c1-c1ccc2c(c1)N(C1CCCC1)[C@H](C)C(=O)N2 please.
### Response 370
